Target: T1, Omicron BA.1 RBD (SARS-CoV-2, UniProt P0DTC2 333-528)
T1 construct: domain: RBD
Assay: ELISA

BINDER: Omi36 (antibody, V domains shown) VH: EVQLVESGGGVVQPGGSLRLSCAASGIIVSANYMTWVRQAPGKGLEWVSVIYPGGSTFYADSVKGRFTISRDNSKNTLYLQMNSLRVEDSAVYYCARDLELAGFNDYWGQGTLVTVSS VL: DIVMTQSPGTLSLSPGERATLSCRTSQSVSSNYLAWYQQKPGQAPRLLIYGASSRATGIPDRFSGSGSGTDFTLTISRLEPEDFAVYYCQQFGSSPRYTFGQGTKVEIK
binding result: binds
--
BINDER: Omi17 (antibody, V domains shown) VH: QVQLVESGGGVVQPGGSLRLSCAASGVTVSSNYMSWVRQAPGKGLEWVSVLYAGGSTFYADSVKGRFTISRDNSKNTLYLQMNSLRAEDTAAYYCARDLAVAGFLDSWGQGTLVTVSS VL: DIVMTQSPGTLSLSPGERATLSCRASQGVSSIYLAWYQQKPGQAPRLVLYGASSRATGIPDRFSGSGSGTDFTLTISRLEPEDFAVYYCQQYGSSPRYTFGQGTKVEIK
binding result: binds
--
BINDER: Omi26 (antibody, V domains shown) VH: QVQLVQSGTEVKKPGASVKVSCKASDYTFTRFGIIWVRQAPGQGLEWMGQINPYNGNTDYAQKFQGRVTLTTDTSTNTAYMELRSLRSDDTAVYYCARSAGSPTGLDYWGQGTLVTVSS VL: QSVVTQPPSVSEAPRQRVTISCSGSNSNIGNNAVNWYQQLPGKAPKLLVYYDDLLPSGVSDRFSGSKSGTSASLAISGLQSEDKADYYCAAWDDSLNALVFGGGTKLTVL
binding result: binds
